Below, each of the compounds is paired with its reported IC50 value.
- target: MIF (Homo sapiens, UniProt P14174)
- experiment: MIF tautomerase assay using pHPP as substrate
- Type: biochemical
- measurementSetup: inhibition of the MIF enzyme in vitro; mean of multiple test results; read-out: Tautomerase Inhibition pIC50 (converted)

Record excerpt, results attached:
INSERT INTO assay_data (smilesstring, reported) VALUES
  ('Oc1ccc(N2CCN(c3cc(-n4ncc5ccccc54)n4ncc(Br)c4n3)CC2)cc1', '> 10 µM'),
  ('O=C(O)Cn1cnc2c(-n3ncc4c(C(=O)O)cccc43)nc(N3CCN(c4ccc(O)cc4)CC3)nc21', '0.01 to 0.0977 µM'),
  ('Cc1nc(N2CCN(c3ccc(O)cc3)CC2)nc2c1ncn2C(CO)CO', '> 10 µM');

Here is the next item to consider.
Noted IC50 for Cc1cc(-n2cnc3c(C)nc(N4CCC(O)(c5ccc(O)cc5)CC4)nc32)ccn1 , tested on MIF (Homo sapiens, UniProt P14174): > 10 µM

* * *

Below, each of the molecules is paired with its reported IC50 value.
- target: MIF (Homo sapiens)
- experiment: MIF tautomerase assay using pHPP as substrate
- Format: biochemical
- measurementSetup: inhibition of the MIF enzyme in vitro; mean of multiple test results; read-out: Tautomerase Inhibition pIC50 (converted)

Record excerpt, results attached:
INSERT INTO assay_data (molecule, reported) VALUES
  ('Cc1nc(N2CCN(c3ccc(O)cc3)CC2)nc2c1ncn2-c1ccccc1', '100 to 977 nM'),
  ('CNC(=O)c1ccc(-n2cnc3c(N)nc(N4CCN(c5ccc(O)cc5)CC4)nc32)cc1', '1000 to 9770 nM'),
  ('OCC(CO)n1cnc2c(N3CCc4ccccc43)nc(N3CCN(c4ccc(O)cc4)CC3)nc21', '100 to 977 nM');

Record summary for COC(=O)Cn1cnc2c(-n3ncc4ccccc43)nc(N3CCN(c4ccc(O)cc4)CC3)nc21 : reported IC50 = 100 to 977 nM

Record summary for COc1ccc2c(cnn2-c2nc(N3CCN(c4ccc(O)cc4)CC3)nc3c2ncn3CC(=O)O)c1 : reported IC50 = 10 to 97.7 nM

Record summary for O=C(O)Cn1cnc2c(-c3cccc4[nH]ccc34)nc(N3CCN(c4ccc(O)cc4)CC3)nc21 : reported IC50 = 1000 to 9770 nM

Record summary for Nc1nc(N2CC=C(c3ccc(O)cc3)CC2)nc2c1ncn2-c1ccncc1 : reported IC50 = > 10000 nM

Record summary for CCC(CO)N(C)c1nc(N2CCN(c3ccc(O)cc3)CC2)nc2c1ncn2-c1cccnc1 (stereo not shown) [Example 183] : reported IC50 = > 10000 nM

* * *

- target: MIF (Homo sapiens)
- Sequence (P14174 2-115 limits assumed): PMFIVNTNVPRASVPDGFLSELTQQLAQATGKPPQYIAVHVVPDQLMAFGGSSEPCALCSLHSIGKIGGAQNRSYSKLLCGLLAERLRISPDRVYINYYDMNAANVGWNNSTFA
- experiment: MIF tautomerase assay using pHPP as substrate
- Assay type: biochemical
- measurementSetup: inhibition of the MIF enzyme in vitro; mean of multiple test results; read-out: Tautomerase Inhibition pIC50 (converted)
endpoint: IC50

Record excerpt, results attached:
INSERT INTO results (molecule, endpoint, reported) VALUES
  ('OCCNc1nc(N2CCN(c3ccc(O)cc3)CC2)nc2c1ncn2-c1cccnc1 [Example 112]', 'IC50', '100 to 977 nM'),
  ('Nc1nc(N2CC(O)(c3nccs3)C2)nc2c1ncn2-c1ccncc1 [Example 201]', 'IC50', '> 10000 nM'),
  ('O=C(O)C1CCCN1c1nc(N2CCN(c3ccc(O)cc3)CC2)nc2c1ncn2-c1ccncc1 (stereo not shown) [Example 167]', 'IC50', '10 to 97.7 nM');

Here is the next item to consider.
Record summary for Nc1nc(N2CCN(c3ccc(O)cc3)CC2)nc2c1ncn2-c1ccncc1 [Example 80] : reported IC50 = 10 to 97.7 nM

* * *

- target: MIF (Homo sapiens, UniProt P14174)
- Sequence (P14174 2-115 limits assumed): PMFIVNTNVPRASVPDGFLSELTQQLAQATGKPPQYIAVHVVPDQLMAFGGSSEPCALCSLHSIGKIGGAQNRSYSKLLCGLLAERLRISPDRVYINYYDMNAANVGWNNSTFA
- experiment: MIF tautomerase assay using pHPP as substrate
- Format: biochemical
- measurementSetup: inhibition of the MIF enzyme in vitro; mean of multiple test results; read-out: Tautomerase Inhibition pIC50 (converted)
Below, each of the compounds is paired with its reported IC50 value.

Record excerpt, results attached:
INSERT INTO assay_data (compound, endpoint, reported) VALUES
  ('Oc1ccc(N2CCN(c3nc(N4C[C@H](O)[C@@H](O)C4)c4ncn(-c5ccncc5)c4n3)CC2)cc1', 'IC50', '10 to 97.7 nM'),
  ('CC1CN(c2nc(N)c3ncn(-c4ccncc4)c3n2)CCN1c1ccc(O)cc1 (stereo not shown)', 'IC50', '100 to 977 nM'),
  ('O=C(O)Cn1cnc2c(-n3ncc4ccc(CO)cc43)nc(N3CCN(c4ccc(O)cc4)CC3)nc21', 'IC50', '100 to 977 nM'),
  ('Nc1nc(N2CCN(c3ccc(O)cc3)CC2)nc2c1ncn2-c1cccc(O)c1', 'IC50', '1000 to 9770 nM'),
  ('O=C(O)CNC(=O)Cn1cnc2c(-n3ncc4ccccc43)nc(N3CCN(c4ccc(O)cc4)CC3)nc21', 'IC50', '10 to 97.7 nM');

Noted IC50 for Nc1nc(N2CCC(c3ccc(O)cc3)CC2)nc2c1ncn2-c1ccncc1 , tested on MIF (Homo sapiens, UniProt P14174): 10 to 97.7 nM

Noted IC50 for Nc1nc(N2CCC(O)(c3ccc(F)cc3)CC2)nc2c1ncn2-c1ccncc1 , tested on MIF (Homo sapiens, UniProt P14174): 1000 to 9770 nM

Noted IC50 for O=C(O)CNc1nc(N2CCN(c3ccc(O)cc3)CC2)nc2c1ncn2-c1ccncc1 , tested on MIF (Homo sapiens, UniProt P14174): 10 to 97.7 nM

Noted IC50 for CN(CC(=O)O)c1nc(N2CCN(c3ccccc3)CC2)nc2c1ncn2-c1ccncc1 , tested on MIF (Homo sapiens, UniProt P14174): > 10000 nM

Noted IC50 for Cc1cncc(-n2cnc3c(N)nc(N4CCN(c5ccc(O)cc5)CC4)nc32)c1 , tested on MIF (Homo sapiens, UniProt P14174): > 10000 nM

Noted IC50 for Oc1ccc(C2(O)CCN(c3nc(N4C[C@H](O)[C@@H](O)C4)c4ncn(-c5ccncc5)c4n3)CC2)cc1 , tested on MIF (Homo sapiens, UniProt P14174): 100 to 977 nM

Noted IC50 for O=C(O)Cn1cnc2c(-c3c[nH]c4ccccc34)nc(N3CCN(c4ccc(O)cc4)CC3)nc21 , tested on MIF (Homo sapiens, UniProt P14174): 1000 to 9770 nM

Noted IC50 for O=C(O)C1CCCN(c2nc(N3CCN(c4ccc(O)cc4)CC3)nc3c2ncn3-c2ccncc2)C1 (stereo not shown) , tested on MIF (Homo sapiens, UniProt P14174): 10 to 97.7 nM

Noted IC50 for CCC(C(=O)O)n1cnc2c(-n3ncc4ccccc43)nc(N3CCN(c4ccc(O)cc4)CC3)nc21 (stereo not shown) , tested on MIF (Homo sapiens, UniProt P14174): 10 to 97.7 nM

Noted IC50 for Nc1nc(N2CCN(c3ccc(O)cc3)CC2)nc2c1ncn2-c1ccc(F)cc1 , tested on MIF (Homo sapiens, UniProt P14174): > 10000 nM

Noted IC50 for NC(=O)c1ccc(C2(O)CN(c3nc(N)c4ncn(-c5ccncc5)c4n3)C2)cc1 , tested on MIF (Homo sapiens, UniProt P14174): 1000 to 9770 nM

* * *

- target: MIF (Homo sapiens, UniProt P14174)
- Sequence (P14174 2-115 limits assumed): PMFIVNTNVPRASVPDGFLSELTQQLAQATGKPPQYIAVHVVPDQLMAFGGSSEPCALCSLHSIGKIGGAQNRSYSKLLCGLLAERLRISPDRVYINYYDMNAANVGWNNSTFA
- experiment: MIF tautomerase assay using pHPP as substrate
- Assay type: biochemical
- measurementSetup: inhibition of the MIF enzyme in vitro; mean of multiple test results; read-out: Tautomerase Inhibition pIC50 (converted)
Below, each of the compounds is paired with its reported IC50 value.

Record excerpt, results attached:
INSERT INTO results (compound, target, reported) VALUES
  ('OCC1CCN(c2nc(N3CCN(c4ccc(O)cc4)CC3)nc3c2ncn3-c2cccnc2)C1 (centres unmarked)', 'MIF (Homo sapiens, UniProt P14174)', '100 to 977 nM'),
  ('CCC(CO)Nc1nc(N2CCN(c3ccc(O)cc3)CC2)nc2c1ncn2-c1cccnc1 (centres unmarked)', 'MIF (Homo sapiens, UniProt P14174)', '100 to 977 nM'),
  ('Oc1ccc(N2CCN(c3nc(NCC4CC4)c4ncn(-c5cccnc5)c4n3)CC2)cc1', 'MIF (Homo sapiens, UniProt P14174)', '1000 to 9770 nM');

Record summary for CCOC(=O)Cn1cnc2c(-n3cnc4ccccc43)nc(N3CCN(c4ccc(O)cc4)CC3)nc21 : reported IC50 = 1000 to 9770 nM

Record summary for COc1cccc2c1cnn2-c1nc(N2CCN(c3ccc(O)cc3)CC2)nc2c1ncn2CC(=O)O : reported IC50 = 10 to 97.7 nM

Record summary for CC(C)S(=O)(=O)NC(=O)Cn1cnc2c(-n3ncc4ccccc43)nc(N3CCN(c4ccc(O)cc4)CC3)nc21 : reported IC50 = 100 to 977 nM

Record summary for Nc1nc(N2CCN(c3ccc(O)cc3)CC2)nc2c1ncn2-c1ccccc1F : reported IC50 = 1000 to 9770 nM

Record summary for Cc1cc(N2CCN(c3nc(-n4ncc5ccccc54)c4ncn(CCO)c4n3)CC2)ccc1O : reported IC50 = 1000 to 9770 nM
